Assign logP to each entry below.
- Assay details: Lipophilicity, log P of the compound
- Assay type: physicochemical
- Condition description: octanol/water
# output: bare number, no unit

Enquiry: Quick check: logP of CN1CCN(c2ccc3nc(-c4ccc5nc(-c6ccc(Cl)cc6Cl)[nH]c5c4)[nH]c3c2)CC1 ?
Return: 4.85

Enquiry: Same question for CCOc1ccc(-c2nc3cc(-c4nc5cc(N6CCN(C)CC6)ccc5[nH]4)ccc3[nH]2)cc1 please.
Return: 3.95

Enquiry: Same question for COc1cc(-c2nc3ccc(-c4nc5ccc(N6CCN(C)CC6)cc5[nH]4)cc3[nH]2)cc(OC)c1OC please.
Return: 3.36

Enquiry: Same question for COc1ccc(-c2nc3cc(-c4nc5cc(N6CCN(C)CC6)ccc5[nH]4)ccc3[nH]2)cc1OC please.
Return: 3.48

Enquiry: Same question for CN1CCN(c2ccc3nc(-c4ccc5nc(-c6ccc(F)cc6F)[nH]c5c4)[nH]c3c2)CC1 please.
Return: 4.05
